Source of measurements: the supplement of paper PMC12042874

Experiment: amyloid nucleation score (Sup35N fusion, yeast selection) (log enrichment); library NNK2; higher = more nucleation; inactive = no reads after selection;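 also: zero at mode of non-aggregating sequences after 7 days selection at 30°C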
quantity: amyloid nucleation score
Field format: numeric only.

Look at this substance and give its reported amyloid nucleation score. EARSGVNGRARSMFLIGRYS
-0.262

What does the record list as amyloid nucleation score for SCSRWWFWRNATLEVLSKVR ?
0.697

Fill blank: measured amyloid nucleation score of the substance LAQPCQE is ____.
-0.033

Record request: amyloid nucleation score value, item SSFIRGLTSKAG
1.05

Entry SVFVYYGFQENSAFSIWLAP : reported amyloid nucleation score = ?
-0.96

What does the record list as amyloid nucleation score for RESGLRFNNYMMRWLHGGRV ?
-0.072

Return reported amyloid nucleation score; argument: LLSKGLA
-0.682

I am curious: what amyloid nucleation score value has been reported for PCRYSSKSNYTW ?
-0.507

Which amyloid nucleation score value is on record for NEIFGTVIC ?
-1.12

If you can, please state the reported amyloid nucleation score value of VSHFPGSPLTNKRSMLPAQM .
2.01

For the substance TVSYKWSSMEVITKYKGWSR , what amyloid nucleation score is on record?
0.897

Any idea what its amyloid nucleation score is? The substance is HTRLHKGIQRVEIGSMNGK
-0.637

# input substance: ALPPPVKELPWISRFRQWGR ; wanted: its amyloid nucleation score
1.22

// returns reported amyloid nucleation score for input YLIAELFQIVDACLWLSSWR
-0.328

Look up amyloid nucleation score: IYWLKTPMLLYWGSPCPRNA
0.058

Query: amyloid nucleation score; subject: ACNSRHHEFMSSKFYSATQL
-1.3

Query (substance): ACNFFPLI ; field requested: amyloid nucleation score
3.29

Value lookup for amyloid nucleation score; key = CKWWGRGEGDIVVLWLSEKL
0.942

Could you tell me which amyloid nucleation score is on file for AHIREMNVSGGCWLVQWVSK ?
9.5

Quick one: amyloid nucleation score of LNKNLLEKCLYRDLLLSVFW ?
-2.32

Find the recorded amyloid nucleation score belonging to PARTYILYNPDAGMSLKWSS and report it.
-1.06

# amyloid nucleation score lookup, item IATHHTDESAG
-0.083

Look up amyloid nucleation score for this substance: DRVNGYIIGRLTAYTSVSKD
-0.317

Quick one: amyloid nucleation score of TLNYSVEQPYAVIILGCKLA ?
3.56

Fill blank: measured amyloid nucleation score of the substance TNTCFFSNGGRTSKWHPVLV is ____.
0.135

Entry under review: FINSVVKLLLGNDMSCYSCH . Reported amyloid nucleation score?
5.65

So what's the measured amyloid nucleation score for this one? NWNLRHRCAGWYCDRRKVLR
4.28

Recorded amyloid nucleation score of NFMNKMFALTWCCIDKILCG , please.
-1.1

Please report the recorded amyloid nucleation score for DVHNMGSPGVLAMLVTSDGK .
0.876

Entry FFGLVNWVGLGVHRSMTFAK has what amyloid nucleation score?
-0.609

Need amyloid nucleation score of TISIFGM , thanks.
-0.325

Name the reported amyloid nucleation score value associated with the substance TNCSYMMYAAKVSQKYPPFP
-0.567

Consider the substance WSGQPGFSTYGICLLSVRLK and give its measured amyloid nucleation score.
-0.286

Fill in: amyloid nucleation score of RNLDNHRTFFSFRIGLFMWS is ___
6.13

Query: amyloid nucleation score; subject: YLIKMTCVGIMFSV
6.59

Form field: reported amyloid nucleation score of CNMLRVNHRNLVLTDMCNG
0.204
